Assay: protein stability index of a GFP-peptide fusion (yeast GPS) (PSI 1-4); higher = more stable; sorted into four equal gates, so the index is relative within each strain
Conditions: san1∆
The entries below are paired with their reported protein stability index.
value_kind: protein stability index

INSERT INTO results (seq_text, recorded_value) VALUES
  ('RVLQLLAVIMDNIGEID [YCG1]', 1.46),
  ('DVLINELLDQVTLGREG [CDC53]', 3.06),
  ('FLKEVLSDLSSPVQDWN [YML103C/NUP188]', 2.76),
  ('SNIEQTESLRVENSVLI [YIL149C/MLP2]', 3.08),
  ('PVFHKKAKTTKKVVLRL [RPL42A]', 2.25),
  ('SPKPYAVKYGLNHVVAL [RPL8A]', 2.44),
  ('PLSDLKKRSQAKMNAKT [RPC82]', 3.05),
  ('DLKAQFQELDSKKQRNN [RPN9]', 3.09),
  ('GKMVRAQDVALAKKWFL [PRP8]', 2.57),
  ('FSQFWYWFPLAHFLSLS [RPN2]', 1.21),
  ('LFAESHDVLQKLNTLSE [YML103C/NUP188]', 3.06),
  ('HANAAAVYFADTSGLKI [SIN4]', 2.23),
  ('FNKYADPTLTTTTSFTT [RPN4]', 2.26),
  ('YIRVNHADKDTFSSSIS [POP8]', 2.52),
  ('VDKALIAEIKKTPLLKQ [RPL6A]', 1.92),
  ('EQEDIIEKTESVDKKVD [SWI3]', 3.14),
  ('SSTYYNLDYLFELIELV [NUT1]', 2.78),
  ('IIKRSNGQSLSPVRSDS [YMR153W/NUP53]', 2.76),
  ('SLPSKLTKYKEMERIVK [SRP68]', 2.42),
  ('PSCVYNLIGVITHQGAN [UBP6]', 2.99),
  ('LNHVVSLIENKKAKLVL [RPL8B]', 2.98),
  ('SSVFLPSRKDCMEVASA [BRR2]', 3.33),
  ('TYQLCVRLRSNVIKTGI [RPN3]', 3.27),
  ('EEISRLQRDLIQTKEQV [YIL149C/MLP2]', 3.13),
  ('KEALQNNIFKEFTSKIG [SMC1]', 2.52),
  ('HAKFSPVSTASYRLLPQ [RPC40]', 1.84),
  ('DLMDDMSDISDLDDLGF [RPN3]', 1.57),
  ('SSFNKRSKFLSTVAKFL [IRR1]', 2.08),
  ('LNEAQGHIVSLELTTGA [SMD3]', 1.59),
  ('VCMHCGKLLLDEHNELM [RPO21]', 2.77);

* * *

Assay: protein stability index of a GFP-peptide fusion (yeast GPS) (PSI 1-4); higher = more stable; sorted into four equal gates, so the index is relative within each strain
Settings: doa10∆
Binned protein stability index; ranges: lower (below 2), middle (2 to below 3), upper (3 or more)

INSERT INTO measurements (seq_text, qualitative_label) VALUES
  ('TNPSSIFGGAGGVPTTS [YOR098C/NUP1]', 'lower'),
  ('KELFGEDEDEDLFGDSN [SSN2]', 'upper'),
  ('FTAGARAKIVKAGGECI [RPL18A]', 'lower'),
  ('QVNIRFLLHNSEIIDTN [SRB8]', 'middle'),
  ('KHEDFVEGISEVQARKS [RPT5]', 'upper'),
  ('IRKSETSGRYASYRICM [RPB5]', 'middle'),
  ('NVSFVLPDEKSDAMSID [YCG1]', 'upper'),
  ('SDNVYLKLLVKLYTFLA [RPL18A]', 'middle'),
  ('LLSIPISCPLIGVIQLA [FAS1]', 'lower'),
  ('LELNLSVLHSWVQLVQI [YJL039C/NUP192]', 'lower'),
  ('CARFLGNRGFSIGINDV [RPO31]', 'middle'),
  ('FFDGSASSTPIPVLGKP [YOR098C/NUP1]', 'middle'),
  ('KKMMNTLVHTRVKIANT [SSN2]', 'middle');

* * *

Assay: protein stability index of a GFP-peptide fusion (yeast GPS) (PSI 1-4); higher = more stable; sorted into four equal gates, so the index is relative within each strain
Details: san1∆
value_kind: protein stability index

INSERT INTO measurements (seq_text, value_kind, recorded_value) VALUES
  ('SSPDTMKLTDLLSLINS [SNF12]', 'protein stability index', 2.81),
  ('DVVTREYTINLHKRLHG [RPL31A]', 'protein stability index', 2.66),
  ('KTLTGKTITLEVESSDT [RPS31]', 'protein stability index', 2.43),
  ('HKCDELITLFNKGELET [RPO31]', 'protein stability index', 2.98),
  ('ARQRGKLKKSEEKVLST [SRP68]', 'protein stability index', 3.33),
  ('KSEFDDLSLNIHPIPSV [YMR129W/POM152]', 'protein stability index', 2.75),
  ('VTYSDVGGCKDQIEKLR [RPT1]', 'protein stability index', 2.92),
  ('ESINNVVDQLWSEISNE [RPN2]', 'protein stability index', 2.83),
  ('MGMDLYKTSKAAQDVWN [FAS1]', 'protein stability index', 3.08),
  ('HDADLEVSMNSIFAMGL [RPN1]', 'protein stability index', 2.65),
  ('VSLVVNFQISKKMDDYI [PRP28]', 'protein stability index', 2.38),
  ('FVKPGTALDAEGAARGT [DIS3]', 'protein stability index', 3.24),
  ('RDVELSSDELKVIEEQL [SMC4]', 'protein stability index', 2.94),
  ('ENDHERGFFHLNEALLQ [CSN12]', 'protein stability index', 3.28),
  ('EGFAADDEPTTPAELVG [FAS1]', 'protein stability index', 3.2),
  ('LANYLTSALSELSGLIS [QCR2]', 'protein stability index', 1.84),
  ('EEPIKKLCYVLGVEDIT [RET1]', 'protein stability index', 3.08),
  ('ISYLQEVQCTSTPYLEI [PCI8]', 'protein stability index', 1.7),
  ('WLWPLCRGELKADIGKP [CDC53]', 'protein stability index', 1.98),
  ('LYFYRDPEEVEQQVAEE [RPS0A]', 'protein stability index', 3.1),
  ('DLVHIKDSLDNTFVTRL [RPS4A]', 'protein stability index', 3),
  ('LSISVAAEPMDSKMIQD [SNU114]', 'protein stability index', 2.84),
  ('VTLVNGKRRMNPGPSVQ [RPS30A]', 'protein stability index', 2.81),
  ('EKESVEKQHENAVLELG [SMC3]', 'protein stability index', 2.9),
  ('RMRVSVLEKYEVIGYIA [SSN3]', 'protein stability index', 1.09),
  ('NESFNRRISSMPGGYFH [YAR002W/NUP60]', 'protein stability index', 3.07),
  ('QFYVKRWKRFTIGAIFL [CDC53]', 'protein stability index', 3.08),
  ('ATPQEAQFYLGKRIAYV [RPL33B]', 'protein stability index', 1.76),
  ('DSTAVALEEGLNEEAVI [YJL039C/NUP192]', 'protein stability index', 2.68),
  ('IERIGHLLSINYGEKEE [PCI8]', 'protein stability index', 1.2);

* * *

Experiment: protein stability index of a GFP-peptide fusion (yeast GPS) (PSI 1-4); higher = more stable; sorted into four equal gates, so the index is relative within each strain
Conditions: pdr5∆
Recorded protein stability index for the following sequences
value_kind: protein stability index

INSERT INTO measurements (seq_text, recorded_value) VALUES
  ('RFSYSPPKEGNYEIVFD [YMR129W/POM152]', 3.24),
  ('VEDELTESIALSSMRFK [RRI1]', 3.38),
  ('PLSDLKKRSQAKMNAKT [RPC82]', 3.4),
  ('IPGEEVEETEVPTVPPS [MED4]', 2.42),
  ('IQEFLVVIEKRRKKILN [GRR1]', 2.74),
  ('LIEFQPSQGVHYKVPTD [MED6]', 2.98),
  ('ISKHSKQAIYTRATASE [RPS25A]', 2.03),
  ('GGRMFAPTKTWRKWNVK [RPL4A]', 2.88),
  ('AVAVGNVEMEEDVLVNQ [RPL1A]', 2.17),
  ('TNILISPLNTTTKILGD [YML103C/NUP188]', 2.42),
  ('SGGGDSEVQRTMLELLN [RPT6]', 2.42),
  ('ENNSDSNSNNNGNKDSS [SWI1]', 3.12),
  ('DTAPKPNIVEIDLDNDE [DLS1]', 3.4),
  ('GKLGQIDYALTAVKQGV [PRE8]', 1.93);
